Taken from patent US8569578B1.

test system: potato roots; test: in vitro root assay with synthetic CLE peptides on potato roots; type: in vivo; details: 10 μM peptide in assay medium, compared with no peptide or Ag-16p
reported.metric: suppression of root growth (length of main root)

[Q] Specify suppression of root growth (length of main root) for RAVPAGPDPKHH (RAVPAGPDPLHH; listed as Globodera rostochiensis) [GrCLE4-2-12p, 12 aa Gr-CLE-4 related peptide] and stop.
[A] significantly shorter

[Q] Specify suppression of root growth (length of main root) for RVIPGAPDPLHN (listed as Globodera rostochiensis) [GrCLE1-1m-12p, mutated GrCLE1-1 dodecapeptide with a G-to-A conversion at position 6] and stop.
[A] significantly shorter

[Q] Specify suppression of root growth (length of main root) for KRVIPGGPDPLHNR (listed as Globodera rostochiensis) [GrCLE1-1-14p, 14 aa GrCLE1-1 peptide withone additional N-terminal and C-terminal residue] and stop.
[A] significantly shorter
